# Tgt: human melanocortin-4 receptor (MC-4R) (Homo sapiens, UniProt P32245)
# Construct: expressed in transfected cells; host or cells: HEK293
# Sequence (P32245 whole entry): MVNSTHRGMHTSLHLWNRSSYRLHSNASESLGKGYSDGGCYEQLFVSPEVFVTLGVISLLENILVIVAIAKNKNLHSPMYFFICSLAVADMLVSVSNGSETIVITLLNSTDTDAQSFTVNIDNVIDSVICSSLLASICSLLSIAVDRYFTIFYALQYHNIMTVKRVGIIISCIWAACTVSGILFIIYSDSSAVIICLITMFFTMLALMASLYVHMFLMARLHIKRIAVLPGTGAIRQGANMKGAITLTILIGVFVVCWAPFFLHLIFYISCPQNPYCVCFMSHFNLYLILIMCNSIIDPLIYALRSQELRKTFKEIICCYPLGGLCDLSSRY
# Run description: Functional assay: agonistic activity, cAMP production in membrane preparations compared with NDP-alpha-MSH, fluorescence polarization
# Assay type: biochemical
# Reported conditions: cAMP produced compared to stimulation with NDP-alpha-MSH; read-out: % activation functional assay
Documented Emax across a set of molecules
Kindly format the answer as number then unit.

Example entries begin here.
• CC[C@H](COc1cccnc1C1CCN(C(=O)[C@@H](Cc2ccc(Cl)cc2Cl)NC(=O)N2CCC2)CC1)N1CCCC1 = 0%
• CC[C@H](COc1cccnc1C1CCN(C(=O)[C@@H](Cc2ccc(Cl)cc2Cl)NC(=O)N2CCCO2)CC1)N1CCCC1 = 0%

Query: Please report the measured Emax for `CC[C@H](COc1cccnc1C1CCN(C(=O)[C@@H](Cc2ccc(Cl)cc2Cl)NC(=O)N2CCC(C)(O)CC2)CC1)N(C)C`
Reply: -8%

###

# Tgt: human melanocortin-4 receptor (MC-4R) (Homo sapiens)
# Construct: expressed in transfected cells; host or cells: HEK293
# Run description: Functional assay: agonistic activity, cAMP production in membrane preparations compared with NDP-alpha-MSH, fluorescence polarization
# Assay type: biochemical
# Reported conditions: cAMP produced compared to stimulation with NDP-alpha-MSH; read-out: % activation functional assay
Measurement type: Emax (%)
Number in %, nothing else.

As a guide, the following entries are already answered.
- CC[C@H](COc1cc(Cl)cnc1C1CCN(C(=O)[C@@H](Cc2ccc(C)cc2C)NC(=O)N2CC(O)C2)CC1)N(C)C: -5
- CC[C@@H](CN(C)C)Oc1cccnc1C1CCN(C(=O)[C@@H](Cc2ccc(Cl)cc2Cl)NC(=O)N2CCCC2)CC1: 36
- CC[C@H](COc1cccnc1C1CCN(C(=O)[C@@H](Cc2ccc(Cl)cc2Cl)NC(=O)N2CCC[C@@H]2CO)CC1)N(C)C: -2
- CC[C@@H](COc1cccnc1C1CCN(C(=O)[C@@H](Cc2ccc(Cl)cc2Cl)NC(=O)N2CCCC2)CC1)N1CCCC1: -3
- CN1CCOC[C@@H](Oc2cccnc2C2CCN(C(=O)[C@@H](Cc3ccc(Cl)cc3Cl)NC(=O)N3CCCC3)CC2)C1: 4

Query: Quickly give me recorded Emax for `CN1CCN(Cc2cc(F)cnc2C2CCN(C(=O)[C@@H](Cc3ccc(Cl)cc3Cl)NC(=O)N3CCCC3)CC2)CC1`
Reply: -1

Query: Find the measured Emax of `CC[C@H](COc1cc(C)cnc1C1CCN(C(=O)[C@@H](Cc2ccc(Cl)cc2Cl)NC(=O)N2CCCC2)CC1)N(C)C` and report it.
Reply: 0

Query: Tell me measured Emax for `CC[C@@H](CN(C)C)Oc1cccnc1C1CCN(C(=O)[C@@H](Cc2ccc(Cl)cc2Cl)NC(=O)N2CC[C@@H](O)C2)CC1` please.
Reply: -10

Query: Tell me Emax reported for `CC[C@H](COc1cc(F)cnc1C1CCN(C(=O)[C@@H](Cc2ccc(Cl)cc2Cl)NC(=O)N2CCCC2)CC1)N(C)C`
Reply: -12

Query: Provide measured Emax value, entry: CC[C@H](COc1cccnc1C1CCN(C(=O)[C@@H](Cc2ccc(Cl)cc2Cl)NC(=O)N2CCC(C)(O)C2)CC1)N(C)C (some centres unmarked)
Reply: 0

Query: Supply reported Emax belonging to this compound: `CC[C@H](COc1cccnc1C1CCN(C(=O)[C@@H](Cc2ccc(Cl)cc2Cl)NC(=O)N2CC(O)(C3CC3)C2)CC1)N(C)C`
Reply: 3

Query: Using the record for `CC[C@H](CN(C)C)Oc1cccnc1C1CCN(C(=O)[C@@H](Cc2ccc(Cl)cc2Cl)NC(=O)N2CCCC2)CC1` , state its measured Emax.
Reply: -3

Query: Return reported Emax. Input compound: `COC[C@@H](CN(C)C)Oc1cccnc1C1CCN(C(=O)[C@@H](Cc2ccc(Cl)cc2Cl)NC(=O)N2CCCC2)CC1`
Reply: -36

Query: Given the compound `CN1CC[C@@H](COc2cccnc2C2CCN(C(=O)[C@@H](Cc3ccc(Cl)cc3Cl)NC(=O)N3CCCC3)CC2)C1` , write its reported Emax.
Reply: 10

###

Emax values, listed per item
# Tgt: human melanocortin-4 receptor (MC-4R) (Homo sapiens, UniProt P32245)
# Construct: expressed in transfected cells; host or cells: HEK293
# Run description: Functional assay: agonistic activity, cAMP production in membrane preparations compared with NDP-alpha-MSH, fluorescence polarization
# Type: biochemical
# Reported conditions: cAMP produced compared to stimulation with NDP-alpha-MSH; read-out: % activation functional assay
Return type: number; implicit unit %.

Field: example entries. Status: answers known.
- CC[C@@H](CN(C)C)Oc1cccnc1C1CCN(C(=O)[C@@H](Cc2ccc(Cl)cc2Cl)NC(=O)N(C)CC)CC1: 3
- CC[C@H](COc1cccnc1C1CCN(C(=O)[C@@H](Cc2ccc(Cl)cc2Cl)NC(=O)N2CC(O)C2)CC1)N1CCCC1: 0
- CC[C@H](COc1cccnc1C1CCN(C(=O)[C@@H](Cc2ccc(Cl)cc2Cl)NC(=O)N2CC[C@H](OC(C)=O)C2)CC1)N(C)C: 0
- CN1CCC[C@H](Oc2cccnc2C2CCN(C(=O)[C@@H](Cc3ccc(Cl)cc3Cl)NC(=O)N3CC[C@H](O)C3)CC2)C1: -3
- CN1CCOC[C@@H]1COc1cccnc1C1CCN(C(=O)[C@@H](Cc2ccc(Cl)cc2Cl)NC(=O)N2CCCC2)CC1: 2
- CN(C)[C@@H]1CCC[C@@H]1Oc1cccnc1C1CCN(C(=O)[C@@H](Cc2ccc(Cl)cc2Cl)NC(=O)N2CCCC2)CC1: 5
- CC[C@H](COc1cccnc1C1CCN(C(=O)[C@@H](Cc2ccc(Cl)cc2Cl)NC(=O)N2CC[C@@H](F)C2)CC1)N1CCCC1: 0
- CC[C@H](COc1cccnc1C1CCN(C(=O)[C@@H](Cc2ccc(Cl)cc2Cl)NC(=O)N(C)C2COC2)CC1)N(C)C: -6
- CC[C@H](COc1cccnc1C1CCN(C(=O)[C@@H](Cc2ccc(Cl)cc2Cl)NC(=O)N2CCSC2)CC1)N1CCCC1: 0
- CC[C@H](COc1cc(Cl)cnc1C1CCN(C(=O)[C@@H](Cc2ccc(Cl)cc2Cl)NC(=O)N2CCCC2)CC1)N1CCCC1: -11

Query: Hello, please tell me recorded Emax for this one: `CC[C@@H](CN(C)C)Oc1cccnc1C1CCN(C(=O)[C@@H](Cc2ccc(Cl)cc2Cl)NC(=O)N2CC(O)C2)CC1`
Reply: 10

Query: Retrieve Emax measured for `CC[C@H](COc1cccnc1C1CCN(C(=O)[C@@H](Cc2ccc(Cl)cc2Cl)NC(=O)N2CCOC[C@@H]2C)CC1)N1CCCC1` and print it.
Reply: 0

Query: Give the value of Emax reported for the following: `CN1CC[C@@H](Oc2cccnc2C2CCN(C(=O)[C@@H](Cc3ccc(Cl)cc3Cl)NC(=O)N3CCCC3)CC2)C1`
Reply: 0

###

Quick reference: pIC50 of the listed items.
# Tgt: human melanocortin-4 receptor (MC-4R) (Homo sapiens)
pIC50: −log10 of the molar value.

Examples from the recorded data:
* CC[C@@H](COc1cccnc1C1CCN(C(=O)[C@@H](Cc2ccc(Cl)cc2Cl)NC(=O)N2CCCC2)CC1)N(C)C | 6.00 to 7.00
* CN1CCN(Cc2cc(F)cnc2C2CCN(C(=O)[C@@H](Cc3ccc(Cl)cc3Cl)NC(=O)N3CC(O)C3)CC2)CC1 | ≥ 7.00

Query: Provide one value: measured pIC50 of `CC[C@H](COc1cccnc1C1CCN(C(=O)[C@@H](Cc2ccc(Cl)cc2Cl)NC(=O)N2CC[C@@H](OC)C2)CC1)N(C)C`
Reply: ≥ 7.00

Query: For `CC[C@H](COc1cccnc1C1CCN(C(=O)[C@@H](Cc2ccc(Cl)cc2Cl)NC(=O)N2C[C@@H](C)O[C@@H](C)C2)CC1)N1CCCC1` , write its pIC50.
Reply: ≥ 7.00

###

Each entry below carries its reported Emax.
# Tgt: human melanocortin-4 receptor (MC-4R) (Homo sapiens)
# Construct: expressed in transfected cells; host or cells: HEK293
# Run description: Functional assay: agonistic activity, cAMP production in membrane preparations compared with NDP-alpha-MSH, fluorescence polarization
# Assay type: biochemical
# Reported conditions: cAMP produced compared to stimulation with NDP-alpha-MSH; read-out: % activation functional assay
Form entry: value (%) — number only.

Query: Lab note: record Emax of Cc1ccc(C2CCN(C(=O)[C@@H](Cc3ccc(Cl)cc3Cl)NC(=O)N3CCCC3)CC2)c(N2CCN(C)CC2)n1 [Example 4] tested on human melanocortin-4 receptor (MC-4R) (Homo sapiens).
Reply: 0

Query: # lookup: human melanocortin-4 receptor (MC-4R) (Homo sapiens) Emax, key = CC[C@H](COc1cccnc1C1CCN(C(=O)[C@@H](Cc2ccc(Cl)cc2Cl)NC(=O)N2CC[C@H](O)C2)CC1)N1CCCC1 [Example 89]
Reply: 0

Query: Fill in Emax for CC[C@H](COc1cccnc1C1CCN(C(=O)[C@@H](Cc2ccc(Cl)cc2Cl)NC(=O)N2CC(O)C2)CC1)N(C)C [Example 102] tested with human melanocortin-4 receptor (MC-4R) (Homo sapiens).
Reply: -1

Query: Under human melanocortin-4 receptor (MC-4R) (Homo sapiens): report Emax of CC[C@@H](CN1CCCC1)Oc1nccnc1C1CCN(C(=O)[C@@H](Cc2ccc(Cl)cc2Cl)NC(=O)N2CCCC2)CC1 [Example 63] .
Reply: 0

Query: Report Emax under test system human melanocortin-4 receptor (MC-4R) (Homo sapiens) for CC[C@H](COc1cccnc1C1CCN(C(=O)[C@@H](Cc2ccc(Cl)cc2Cl)NC(=O)N2CCOCC2)CC1)N1CCCC1 [Example 91] .
Reply: 0

Query: Please tell me the measured Emax for CC[C@H](COc1cccnc1C1CCN(C(=O)[C@@H](Cc2ccc(Cl)cc2Cl)NC(=O)N2CCC=N2)CC1)N1CCCC1 [Example 95] ; system: human melanocortin-4 receptor (MC-4R) (Homo sapiens).
Reply: 0

Query: Answer with Emax of CN1CCC(Oc2cccnc2C2CCN(C(=O)[C@@H](Cc3ccc(Cl)cc3Cl)NC(=O)N3CCCC3)CC2)CC1 [Example 38] measured for human melanocortin-4 receptor (MC-4R) (Homo sapiens).
Reply: -5

Query: # lookup: human melanocortin-4 receptor (MC-4R) (Homo sapiens) Emax, key = CC[C@H](COc1cccnc1C1CCN(C(=O)[C@@H](Cc2ccc(Cl)cc2Cl)NC(=O)N2CCC(O)(C(F)(F)F)C2)CC1)N(C)C (some centres unmarked) [Example 128]
Reply: -8

Query: System human melanocortin-4 receptor (MC-4R) (Homo sapiens). Read-out Emax. Item CN(C)C[C@@H](Oc1cccnc1C1CCN(C(=O)[C@@H](Cc2ccc(Cl)cc2Cl)NC(=O)N2CCCC2)CC1)C(F)(F)F [Example 58] . Report value.
Reply: 4

Query: Report value: Emax, system: human melanocortin-4 receptor (MC-4R) (Homo sapiens), molecule: CC[C@H](COc1cccnc1C1CCN(C(=O)[C@@H](Cc2ccc(Cl)cc2Cl)NC(=O)N2CC(OC(C)=O)C2)CC1)N1CCCC1 [Example 100]
Reply: -7

Query: Give Emax; test system human melanocortin-4 receptor (MC-4R) (Homo sapiens); molecule CC[C@H](COc1nc(C)ncc1C1CCN(C(=O)[C@@H](Cc2ccc(Cl)cc2Cl)NC(=O)N2CCCC2)CC1)N(C)C [Example 64]
Reply: 13

Query: Please look at CC[C@H](COc1cccnc1C1CCN(C(=O)[C@@H](Cc2ccc(Cl)cc2Cl)NC(=O)N2CCC[C@@H]2C(C)(C)O)CC1)N(C)C [Example 121] and tell me its recorded Emax on human melanocortin-4 receptor (MC-4R) (Homo sapiens).
Reply: -6

Query: Recall the reported Emax of C[C@@H](CN(C)C)Oc1cccnc1C1CCN(C(=O)[C@@H](Cc2ccc(Cl)cc2Cl)NC(=O)N2CCCC2)CC1 [Example 15] when tested on human melanocortin-4 receptor (MC-4R) (Homo sapiens).
Reply: 0

Query: State Emax on human melanocortin-4 receptor (MC-4R) (Homo sapiens). Entry: CC[C@@H](CN1CCCC1)Oc1cccnc1C1CCN(C(=O)[C@@H](Cc2ccc(Cl)cc2Cl)NC(=O)N2CCCC2)CC1 [Example 17]
Reply: 0

Query: Provide the reported Emax (system: human melanocortin-4 receptor (MC-4R) (Homo sapiens)) for CC[C@@H](CN1CCCC1)Oc1cnccc1C1CCN(C(=O)[C@@H](Cc2ccc(Cl)cc2Cl)NC(=O)N2CCCC2)CC1 [Example 11]
Reply: 0

Query: Print human melanocortin-4 receptor (MC-4R) (Homo sapiens) Emax for CC[C@H](COc1cccnc1C1CCN(C(=O)[C@@H](Cc2ccc(Cl)cc2Cl)NC(=O)N(CCOC)CCOC)CC1)N1CCCC1 [Example 85] .
Reply: 0

Query: Give Emax only, for CC[C@H](COc1c(C)ccnc1C1CCN(C(=O)[C@@H](Cc2ccc(Cl)cc2Cl)NC(=O)N2CCCC2)CC1)N(C)C [Example 35] , using human melanocortin-4 receptor (MC-4R) (Homo sapiens) data.
Reply: 7

Query: Provide Emax, recorded with human melanocortin-4 receptor (MC-4R) (Homo sapiens), of CC[C@@H](CN(C)C)Oc1cc(F)cnc1C1CCN(C(=O)[C@@H](Cc2ccc(Cl)cc2Cl)NC(=O)N2CCCC2)CC1 [Example 61]
Reply: 1

Query: Tell me Emax of CC[C@H](COc1cccnc1C1CCN(C(=O)[C@@H](Cc2ccc(Cl)cc2Cl)NC(=O)N2CC[C@@H](O)C2)CC1)N1CCCC1 [Example 80] when tested on human melanocortin-4 receptor (MC-4R) (Homo sapiens).
Reply: 0

Query: Specify Emax for CC[C@H](COc1cccnc1C1CCN(C(=O)[C@@H](Cc2ccc(Cl)cc2Cl)NC(=O)N2CCC[C@@H](O)C2)CC1)N(C)C [Example 113] , system human melanocortin-4 receptor (MC-4R) (Homo sapiens).
Reply: -14

Query: Provide Emax, tested on human melanocortin-4 receptor (MC-4R) (Homo sapiens), for CC[C@H]1CN(C)CCN1Cc1cccnc1C1CCN(C(=O)[C@@H](Cc2ccc(Cl)cc2Cl)NC(=O)N2CCCC2)CC1 [Example 50] .
Reply: 0

Query: Look up and report Emax, with human melanocortin-4 receptor (MC-4R) (Homo sapiens) as system, for CC[C@@H](CN1CCCC1)Oc1ncc(C)cc1C1CCN(C(=O)[C@@H](Cc2ccc(Cl)cc2Cl)NC(=O)N2CCCC2)CC1 [Example 9]
Reply: 0
